Answer each item with its documented pIC50.
Tested on: Balb/MK
EXPERIMENTAL_DETAILS: Inhibition of proliferation of EGF-dependent BALB/MK cells
Format: functional, cell-based
EXPERIMENTAL_PARAMETERS: Mus musculus
Answers are plain numbers, as −log10 of the molar value.

Before answering, review these 5 worked examples.
# TEST_SMILES, pIC50
measured = [
    ("Brc1cccc(Nc2ncnc3[nH]c4c(c23)CCCC4)c1", 5.85),
    ("Clc1cccc(Nc2ncnc3[nH]c4c(c23)CCCC4)c1", 6.01),
    ("Cc1[nH]c2ncnc(Nc3cccc(Cl)c3)c2c1-c1ccccc1", 4.42),
    ("Cc1[nH]c2ncnc(Nc3cccc(F)c3)c2c1C", 4.52),
    ("Cc1[nH]c2ncnc(Nc3cccc(Br)c3)c2c1C", 5.85),
]

Record pIC50 per entry; entries follow.
1. Clc1cccc(Nc2ncnc3[nH]c4ccccc4c23)c1
2. Cc1cccc(Nc2ncnc3[nH]c(C)c(C)c23)c1

6.33
5.14

----------
TARGET_OF_ASSAY: Epidermal growth factor receptor (Homo sapiens, UniProt P00533)
Sequence (P00533 whole entry): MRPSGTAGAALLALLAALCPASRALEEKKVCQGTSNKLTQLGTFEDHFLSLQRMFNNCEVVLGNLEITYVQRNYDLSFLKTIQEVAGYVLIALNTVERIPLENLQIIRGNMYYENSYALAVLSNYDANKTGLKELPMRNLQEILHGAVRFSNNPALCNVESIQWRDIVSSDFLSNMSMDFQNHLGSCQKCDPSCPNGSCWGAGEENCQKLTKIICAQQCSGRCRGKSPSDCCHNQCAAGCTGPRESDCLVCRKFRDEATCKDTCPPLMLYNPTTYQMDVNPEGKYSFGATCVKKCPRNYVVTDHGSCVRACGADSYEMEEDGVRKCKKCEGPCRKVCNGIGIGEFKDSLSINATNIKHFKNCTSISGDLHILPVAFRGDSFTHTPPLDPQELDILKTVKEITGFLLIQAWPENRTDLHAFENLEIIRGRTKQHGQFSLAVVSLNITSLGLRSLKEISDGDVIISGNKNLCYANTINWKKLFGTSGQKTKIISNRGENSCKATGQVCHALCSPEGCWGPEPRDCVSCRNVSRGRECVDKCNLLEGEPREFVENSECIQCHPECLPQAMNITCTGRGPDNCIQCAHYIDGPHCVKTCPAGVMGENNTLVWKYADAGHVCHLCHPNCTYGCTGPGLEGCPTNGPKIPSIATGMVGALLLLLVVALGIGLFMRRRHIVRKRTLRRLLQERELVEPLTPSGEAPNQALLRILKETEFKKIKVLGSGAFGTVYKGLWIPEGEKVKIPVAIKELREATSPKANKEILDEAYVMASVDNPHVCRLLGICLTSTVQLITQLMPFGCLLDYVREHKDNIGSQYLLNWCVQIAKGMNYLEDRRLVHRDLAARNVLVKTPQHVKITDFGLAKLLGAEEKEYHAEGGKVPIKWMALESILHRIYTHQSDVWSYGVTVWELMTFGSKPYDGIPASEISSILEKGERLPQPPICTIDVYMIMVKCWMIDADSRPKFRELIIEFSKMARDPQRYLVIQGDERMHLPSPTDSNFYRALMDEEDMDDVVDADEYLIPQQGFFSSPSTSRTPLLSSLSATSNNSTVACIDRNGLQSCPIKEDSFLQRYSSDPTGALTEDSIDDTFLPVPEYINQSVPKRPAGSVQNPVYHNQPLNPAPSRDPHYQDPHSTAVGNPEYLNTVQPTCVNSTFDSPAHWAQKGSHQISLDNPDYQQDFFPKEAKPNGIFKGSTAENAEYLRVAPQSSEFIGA
EXPERIMENTAL_DETAILS: In vitro inhibitory activity against epidermal growth factor receptor
METRIC: pIC50
Numbers only, as −log10 of the molar value.

Reference set, count: 3
# TEST_SMILES, METRIC, OBSERVED_VALUE
rows = [
    ("Cc1[nH]c2ncnc(NCc3ccccc3)c2c1C", "pIC50", 5.97),
    ("Oc1cccc(Nc2ncnc3[nH]c4c(c23)CCCC4)c1", "pIC50", 6.38),
    ("COc1cccc(Nc2ncnc3[nH]c4c(c23)CCCC4)c1", "pIC50", 6.07),
]

# return pIC50 for each item in the list
1. Cc1[nH]c2ncnc(Nc3cccc(C(=O)O)c3)c2c1C
2. Cc1[nH]c2ncnc(Oc3cccc(Cl)c3)c2c1C
3. Cc1c(-c2ccccc2)[nH]c2ncnc(Nc3cccc(Cl)c3)c12
4. Cc1[nH]c2ncnc(Nc3cccc(C#N)c3)c2c1C
5. Cc1[nH]c2ncnc(Nc3ccccc3Cl)c2c1C
6. CCc1ccc(Nc2ncnc3[nH]c(C)c(C)c23)cc1

[4.79, 5.60, 8.00, 6.70, 4.12, 4.11]

The molecule listed as Cc1[nH]c2ncnc(Nc3cccc(Cl)c3)c2c1-c1ccccc1 has a reported pIC50 of 6.64

----------
TARGET_OF_ASSAY: Epidermal growth factor receptor (Homo sapiens, UniProt P00533)
EXPERIMENTAL_DETAILS: In vitro inhibitory activity against epidermal growth factor receptor
Could you please report measured IC50 for the items listed next?
Give bare numbers, in nM.

For orientation, consider the following solved cases.
# TEST_SMILES, TARGET_OF_ASSAY, IC50 [nM]
measured = [
    ("Cc1[nH]c2ncnc(Nc3cccc(C(F)(F)F)c3)c2c1C", "Epidermal growth factor receptor (Homo sapiens, UniProt P00533)", 1900),
    ("COc1cccc(Nc2ncnc3[nH]c(C)c(C)c23)c1", "Epidermal growth factor receptor (Homo sapiens, UniProt P00533)", 1200),
    ("Cc1[nH]c2ncnc(Nc3cccc(O)c3)c2c1C", "Epidermal growth factor receptor (Homo sapiens, UniProt P00533)", 1250),
    ("Cc1[nH]c2ncnc(NC3CCCCC3)c2c1C", "Epidermal growth factor receptor (Homo sapiens, UniProt P00533)", 6920),
    ("Cc1ccc(Nc2ncnc3[nH]c(C)c(C)c23)cc1", "Epidermal growth factor receptor (Homo sapiens, UniProt P00533)", 2100),
]

Please look at the items below and tell me IC50 for each one, in order.
1. Clc1cccc(Nc2ncnc3[nH]c4ccccc4c23)c1
2. Cc1[nH]c2ncnc(N(C)c3cccc(Cl)c3)c2c1C
3. O=C(O)c1cccc(Nc2ncnc3[nH]c4c(c23)CCCC4)c1

6
500
25700
